// provenance: ChEMBL document CHEMBL1201862

System: SF-268
Test: NCI tumour cell line growth inhibition, 48 h
The source made the active and inactive calls. No stated cut-off is given here; in the data, active = GI50 up to about 1.1 µM and inactive = higher.
Outcomes you can answer with include only these: active, inactive

Task: Per the assay record, what outcome was assigned to S=C=NCc1ccccc1 [BENZYL ISOTHIOCYANATE] ?
Output: inactive

Task: Per the assay record, what outcome was assigned to NC1CCC2(O)c3ccccc3C2C1 (stereo not given) ?
Output: inactive

Task: Per the assay record, what outcome was assigned to O=C(O)c1nc(-c2ccccc2)ncc1-c1nnnn1-c1ccccc1 ?
Output: inactive

Task: Per the assay record, what outcome was assigned to CN1CCCCC1CCN1CCCCC1 (stereo not given) ?
Output: inactive

Task: Per the assay record, what outcome was assigned to Cc1cc(S(=O)(=O)O)ccc1/N=N/c1ccc(/N=N/c2c(O)ccc3ccccc23)c(C)c1 ?
Output: inactive

Task: Per the assay record, what outcome was assigned to Clc1ccccc1C(c1ccccc1)(c1ccccc1)n1ccnc1 ?
Output: inactive

====

In this section, each of the compounds is paired with its reported GI50.
Test system: HOP-62
Assay: NCI tumour cell line growth inhibition, 48 h
The source made the active and inactive calls. No stated cut-off is given here; in the data, active = GI50 up to about 1.1 µM and inactive = higher.

- compound: "O=C(O)CC/C(=N\\Nc1nsc2ccccc12)c1ccc(Cl)cc1"
  valueKind: "GI50"
  assayValue: "23.5 µM (inactive)"
- compound: "CC(CN(C)C)C(O)(c1ccccc1)c1ccccc1 (stereo unspecified)"
  valueKind: "GI50"
  assayValue: "> 100 µM (inactive)"
- compound: "CC1=CCCC2C1(C)CCC(C)C2(C)Cc1cc(O)ccc1O (stereo unspecified)"
  valueKind: "GI50"
  assayValue: "13.5 µM (inactive)"
- compound: "Oc1ccc(-c2nn3c(CCCCCCCCc4nnc5sc(-c6ccc(O)cc6)nn45)nnc3s2)cc1"
  valueKind: "GI50"
  assayValue: "> 100 µM (inactive)"
- compound: "COc1ccc2nc3cc(Cl)ccc3c(NCCCN3CCN(CCCNc4ccc5nnn6c7ccccc7c(=O)c4c56)CC3)c2c1"
  valueKind: "GI50"
  assayValue: "> 25 µM (inactive)"

# context switch: different compound, same GI50
Value of GI50 reported for the compound CC1=NN2C(c3ccc(C)cc3)=CSC2=NC(C)(C)C1 is > 100 µM (inactive)

====

Test system: RXF 631
Test: NCI tumour cell line growth inhibition, 48 h
Calls of active or inactive are those of the source. No stated cut-off is given here; in the data, active = GI50 up to about 1.1 µM and inactive = higher.
valueKind: GI50

- compound: "O=C(CCc1ccccc1)NS(=O)(=O)c1ccccc1"
  GI50: "> 100 µM (inactive)"
- compound: "CSc1nc2c(nc(N)n2C2OC(COC(C)=O)C(OC(C)=O)C(OC(C)=O)C2OC(C)=O)c(=O)n1C (centres undefined)"
  GI50: "> 100 µM (inactive)"
- compound: "COc1ccc(C(=O)OC2C=COC(C)C2OC(=O)c2ccc(OC)cc2)cc1 (centres undefined)"
  GI50: "26.4 µM (inactive)"
- compound: "C[C@]12CCC3[C@@H](CC[C@@H]4c5nonc5CC[C@]34C)C1CCC(=O)N2 (some centres undefined)"
  GI50: "> 100 µM (inactive)"
- compound: "CN1NC(c2ccccc2)=C(C#N)C(=O)CC1c1ccc(F)cc1 (centres undefined)"
  GI50: "> 100 µM (inactive)"

Item CC(C)(C)c1cc(O)c2c(c1O)C(=O)CCC2 was tested on RXF 631; the reported GI50 is 57.7 µM (inactive)

Item Cc1ccc(C)c(NC(=O)C(=O)CC(=O)c2cccc3ccccc23)c1 was tested on RXF 631; the reported GI50 is > 100 µM (inactive)

Item [O-]/[N+](=C\c1ccccc1)[C@H](COCc1ccccc1)c1ccccc1 was tested on RXF 631; the reported GI50 is > 100 µM (inactive)

Item CN(C)CCNC(=O)c1cccc2nc3c(Cl)cccc3nc12 was tested on RXF 631; the reported GI50 is 6.92 µM (inactive)

====

Test system: SK-OV-3
Test: NCI tumour cell line growth inhibition, 48 h
Calls of active or inactive are those of the source. No stated cut-off is given here; in the data, active = GI50 up to about 1.1 µM and inactive = higher.
In this section, each of the molecules is paired with its reported GI50.

- molecule: "COc1c(C(=O)O)oc2c(OC)cccc12"
  GI50: "> 100 µM (inactive)"
- molecule: "O=C(CCC(=O)Nc1cccc(C(F)(F)F)c1)CC(=O)c1ccc2ccccc2c1"
  GI50: "> 100 µM (inactive)"

Value of GI50 reported for the molecule CCCN(CCc1ccc(-c2ccccc2)cc1)CCc1ccc2nn[nH]c2c1 is 14.2 µM (inactive)

Value of GI50 reported for the molecule CC1=CCC[C@@]2(C)C(CC[C@@H]2C(C)/C=C/C(C)C)c2ccc(cc2C(=O)O)C[C@@H](O)CC1 (stereo not given in full) is 18.1 µM (inactive)

Value of GI50 reported for the molecule Cn1c2ccccc2c2[nH]cc3nc4ccccc4c-3c21 is 24.3 µM (inactive)

====

Tested on: DU-145
Assay: NCI tumour cell line growth inhibition, 48 h
Activity calls are given as the source filed them. Cut-off read from the data, not from the text of the source: active = GI50 up to about 1.1 µM and inactive = higher. Where a SMILES comes first, the peptide text is derived from it. [ ]: non-standard residue; d: D form. The star is where a group is joined. ξ: configuration not given here. ξPhe(4-NO2) = NC(Cc1ccc([N+](=O)[O-])cc1)C(=O)O; Boc = CC(C)(C)OC(=O)*
valueKind: GI50

Here's what some known entries look like.
- molecule: "O=C1c2ccccc2C(=O)c2c(OCC3CO3)ccc(OCC3CO3)c21 (centres undefined)"
  valueKind: "GI50"
  assayValue: "3.18 µM (inactive)"
- molecule: "CCCCCCCCCCCCCCCCCCNc1ccn(C2OC(CO)C(O)C2O)c(=O)n1 (centres undefined)"
  valueKind: "GI50"
  assayValue: "> 100 µM (inactive)"
- molecule: "CCNC(=O)CNC(=O)C(Cc1ccc([N+](=O)[O-])cc1)NC(=O)OC(C)(C)C (centres undefined) (Boc-[ξPhe(4-NO2)]-Gly-NHEt)"
  valueKind: "GI50"
  assayValue: "> 100 µM (inactive)"
- molecule: "Cc1ncc([N+](=O)[O-])n1CCNC(=O)Cn1ccnc1[N+](=O)[O-]"
  valueKind: "GI50"
  assayValue: "> 100 µM (inactive)"
- molecule: "CCOC(=O)c1csc(NC(=O)CN(C)C)n1"
  valueKind: "GI50"
  assayValue: "> 100 µM (inactive)"

Value of GI50 reported for the molecule CN(C)S(=O)(=O)Nc1nnc(S(N)(=O)=O)s1 is > 100 µM (inactive)

Value of GI50 reported for the molecule NC(=O)c1nnsc1N/N=C/c1ccc([N+](=O)[O-])cc1 is > 100 µM (inactive)

Value of GI50 reported for the molecule CN(C)c1ccc(/C(F)=C(F)/C(F)=C(F)/C(F)=C(\F)c2ccc(Br)cc2)cc1 is 19.4 µM (inactive)

Value of GI50 reported for the molecule NC1=NNC2(C(N)=N1)c1ccccc1-c1ccccc12 is > 10 µM (inactive)

Value of GI50 reported for the molecule C/C=C/C=C/C1=NN(c2cccc(S(=O)(=O)O)c2)C2(C1)C(Cl)C(=O)N2c1nc2ccccc2s1 (centres undefined) is 13.4 µM (inactive)

Value of GI50 reported for the molecule COc1cc2c(cc1OC)CC(N=[N+]=[N-])c1cc(OC)c(OC)cc1/C=C\2 (centres undefined) is > 100 µM (inactive)

Value of GI50 reported for the molecule Cc1cc(O)cc2c1c(=O)c1ccccc1n2C is > 100 µM (inactive)

Value of GI50 reported for the molecule Nc1cc(N)c(/N=N/c2cccc3c(S(=O)(=O)O)cccc23)cc1/N=N/c1cc([N+](=O)[O-])ccc1O is 30.3 µM (inactive)

====

Test system: LXFL 529
Assay: NCI tumour cell line growth inhibition, 48 h
Activity calls are given as the source filed them. No stated cut-off is given here; in the data, active = GI50 up to about 1.1 µM and inactive = higher.
Outcomes you can answer with include only these: active, inactive

Some entries whose results are on file:
- compound: "CSc1nc2c(nc(N)n2C2OC(COC(C)=O)C(OC(C)=O)C(OC(C)=O)C2OC(C)=O)c(=O)n1C (stereo not given)"
  categoryLabel: "inactive"
- compound: "CC(C)N1CC2CC(CN(C(=O)c3ccccc3)C2)C1.[O-][Cl+3]([O-])([O-])O"
  categoryLabel: "inactive"
- compound: "NC(=O)C(=O)C1C(=O)N(c2ccccc2)N=C1N (stereo not given)"
  categoryLabel: "inactive"
- compound: "Nc1ccc(C(=O)N/C(=C\\c2ccc3c(c2)OCO3)c2nc3ccc4c(c3[nH]2)C(=O)c2ccccc2C4=O)cc1"
  categoryLabel: "inactive"
- compound: "COC(=O)C1=C(C(=O)OC)C2=S(SC3=C2CCCC3)S1 (stereo not given)"
  categoryLabel: "inactive"
- compound: "O=C(CCc1ccccc1)NS(=O)(=O)c1ccccc1"
  categoryLabel: "inactive"
- compound: "Cc1[nH]c2ccccc2c1-c1n[nH]c(=O)c2ccccc12"
  categoryLabel: "inactive"
- compound: "C[C@H](N)C(=O)N[C@@H]1[C@H]2C(=C(O)C[C@@H](O)[C@@H]2O)C(=O)O[C@]1(C)C(Cl)Cl [BACTOBOLIN]"
  categoryLabel: "active"

Task: Per the assay record, what outcome was assigned to CC1=C(/C(C)=N/NC(=O)C(N)=O)Sc2ccccc2N1 ?
Output: inactive

Task: Per the assay record, what outcome was assigned to O=C(CCC(=O)Nc1cccc(C(F)(F)F)c1)CC(=O)c1ccc2ccccc2c1 ?
Output: inactive
